B1: library; numbered along this chain (parent)
chain: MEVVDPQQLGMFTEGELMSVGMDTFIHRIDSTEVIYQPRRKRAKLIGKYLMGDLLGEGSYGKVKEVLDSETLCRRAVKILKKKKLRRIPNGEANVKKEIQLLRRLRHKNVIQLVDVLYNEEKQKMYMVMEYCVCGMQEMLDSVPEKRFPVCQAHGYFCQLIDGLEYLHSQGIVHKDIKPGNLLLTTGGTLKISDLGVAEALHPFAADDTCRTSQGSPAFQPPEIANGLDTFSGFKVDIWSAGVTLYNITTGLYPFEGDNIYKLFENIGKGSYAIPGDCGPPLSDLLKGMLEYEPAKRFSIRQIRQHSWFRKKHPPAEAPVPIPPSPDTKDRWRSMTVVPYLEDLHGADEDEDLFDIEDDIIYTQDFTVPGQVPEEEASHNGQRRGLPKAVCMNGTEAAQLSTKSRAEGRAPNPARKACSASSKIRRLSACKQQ

variants of: B1; experiment: STK11 functional score (HeLa growth suppression), rescaled enrichment; synonymous median = 1, nonsense median = 0 (normalised score); settings: with HeLa; variant type: missense
Is STK11 functional score at least 1? Then met. If not, not met.

[
  {
    "changes": "P373H",
    "classAssignment": "met"
  },
  {
    "changes": "R86A",
    "classAssignment": "met"
  },
  {
    "changes": "C418E",
    "classAssignment": "met"
  },
  {
    "changes": "E165V",
    "classAssignment": "not met"
  },
  {
    "changes": "K122L",
    "classAssignment": "met"
  },
  {
    "changes": "L45M",
    "classAssignment": "met"
  },
  {
    "changes": "R301A",
    "classAssignment": "met"
  },
  {
    "changes": "Q100W",
    "classAssignment": "not met"
  },
  {
    "changes": "A218L",
    "classAssignment": "not met"
  },
  {
    "changes": "L67V",
    "classAssignment": "not met"
  },
  {
    "changes": "K311S",
    "classAssignment": "not met"
  },
  {
    "changes": "L282K",
    "classAssignment": "not met"
  },
  {
    "changes": "A406P",
    "classAssignment": "met"
  },
  {
    "changes": "M129V",
    "classAssignment": "not met"
  },
  {
    "changes": "R409I",
    "classAssignment": "met"
  },
  {
    "changes": "D207V",
    "classAssignment": "met"
  },
  {
    "changes": "S299N",
    "classAssignment": "met"
  },
  {
    "changes": "Y131G",
    "classAssignment": "not met"
  },
  {
    "changes": "I238M",
    "classAssignment": "not met"
  },
  {
    "changes": "G15W",
    "classAssignment": "not met"
  },
  {
    "changes": "H306P",
    "classAssignment": "not met"
  },
  {
    "changes": "D162E",
    "classAssignment": "not met"
  },
  {
    "changes": "L45Y",
    "classAssignment": "not met"
  },
  {
    "changes": "P315Y",
    "classAssignment": "met"
  },
  {
    "changes": "L183Y",
    "classAssignment": "met"
  },
  {
    "changes": "E138N",
    "classAssignment": "not met"
  },
  {
    "changes": "R301I",
    "classAssignment": "met"
  },
  {
    "changes": "M127N",
    "classAssignment": "met"
  },
  {
    "changes": "V143A",
    "classAssignment": "met"
  },
  {
    "changes": "G346V",
    "classAssignment": "not met"
  },
  {
    "changes": "F234G",
    "classAssignment": "met"
  },
  {
    "changes": "K262V",
    "classAssignment": "met"
  },
  {
    "changes": "M335Y",
    "classAssignment": "met"
  },
  {
    "changes": "D352T",
    "classAssignment": "met"
  },
  {
    "changes": "V95G",
    "classAssignment": "not met"
  },
  {
    "changes": "M22Y",
    "classAssignment": "met"
  },
  {
    "changes": "V128Q",
    "classAssignment": "met"
  },
  {
    "changes": "K423F",
    "classAssignment": "met"
  },
  {
    "changes": "Y126H",
    "classAssignment": "not met"
  },
  {
    "changes": "D330L",
    "classAssignment": "met"
  },
  {
    "changes": "I260L",
    "classAssignment": "met"
  },
  {
    "changes": "N380K",
    "classAssignment": "met"
  },
  {
    "changes": "M136K",
    "classAssignment": "not met"
  },
  {
    "changes": "S216W",
    "classAssignment": "not met"
  },
  {
    "changes": "I224K",
    "classAssignment": "met"
  }
]
